Here, each record is paired with measured IC50 data.
Target: human bradykinin B2 receptor (hB2R) (Homo sapiens)
Assay: cell-based human bradykinin B2 receptor calcium mobilization (hB2R-CaM) assay
Conditions: antagonistic activity; HTS041C cells; bradykinin at EC80; 25 min preincubation at 37° C.; read-out: IC50-value towards human bradykinin B2 receptor (hB2R)

Quick one: IC50 for CC1=N[C@H](c2cc(F)cc(Cl)c2COc2cccc3c(-n4cc(F)cn4)cc(C)nc23)CO1 [Compound No. 3] ?
501 to 5000 nM

Now consider Cc1cc(-n2cc(F)cn2)c2cccc(OCc3c(Cl)cc(F)cc3[C@@H]3COCCN3C(=O)[C@@H](C)O)c2n1 [compound 6] .
26 to 500 nM

Now consider Cc1cc(-n2cc(F)cn2)c2cccc(OCc3c(Cl)cc(F)cc3[C@@H]3COCCN3C(=O)C(C)(C)O)c2n1 [compound 7] .
26 to 500 nM

More entries:
Quick one: IC50 for Cc1cc(-c2ncnn2C)c2cccc(OCc3c(Cl)cc(F)cc3[C@@H]3COCCN3)c2n1 [compound 13] ?
26 to 500 nM

Now consider Cc1cc(-c2ncnn2C)c2cccc(OCc3c(Cl)cc(F)cc3[C@@H]3COCCN3C(=O)COC(F)F)c2n1 [Compound No. 2] .
≤ 25 nM

Now consider Cc1cc(-n2cc(F)cn2)c2cccc(OCc3c(Cl)cc(F)cc3[C@@H]3COCCN3C(=O)COC(F)F)c2n1 [Compound No. 1] .
≤ 25 nM

Now consider Cc1cc(-c2ncnn2C)c2cccc(OCc3c(Cl)cc(F)cc3[C@@H]3COCCN3C(=O)C(C)(C)O)c2n1 [compound 9] .
26 to 500 nM

###

Target: UniProtKB P30411
Assay: cell-based human bradykinin B2 receptor calcium mobilization (hB2R-CaM) assay
Details: antagonistic activity; HTS041C cells; bradykinin at EC80; 25 min preincubation at 37° C.; read-out: IC50-value towards human bradykinin B2 receptor (hB2R)
Here, each record is paired with measured IC50 data.

Example entries and their recorded answers appear below.
Quick one: IC50 for Cc1cc(-c2ncnn2C)c2cccc(OCc3c(Cl)cc(F)cc3[C@@H]3COCCN3C(=O)c3cnco3)c2n1 ?
≤ 25 nM

Now consider [2H][C@@]1(c2cc(F)cc(Cl)c2COc2cccc3c(-n4cc(F)cn4)cc(C)nc23)COCCN1C(=O)COC(F)F .
≤ 25 nM

More entries:
Quick one: IC50 for Cc1cc(-n2cc(F)cn2)c2cccc(OCc3c(Cl)cc(F)cc3[C@@H]3COCC(=O)N3)c2n1 ?
501 to 5000 nM

###

Molecular target: human bradykinin B2 receptor (hB2R) (Homo sapiens)
Sequence (P30411 1-391): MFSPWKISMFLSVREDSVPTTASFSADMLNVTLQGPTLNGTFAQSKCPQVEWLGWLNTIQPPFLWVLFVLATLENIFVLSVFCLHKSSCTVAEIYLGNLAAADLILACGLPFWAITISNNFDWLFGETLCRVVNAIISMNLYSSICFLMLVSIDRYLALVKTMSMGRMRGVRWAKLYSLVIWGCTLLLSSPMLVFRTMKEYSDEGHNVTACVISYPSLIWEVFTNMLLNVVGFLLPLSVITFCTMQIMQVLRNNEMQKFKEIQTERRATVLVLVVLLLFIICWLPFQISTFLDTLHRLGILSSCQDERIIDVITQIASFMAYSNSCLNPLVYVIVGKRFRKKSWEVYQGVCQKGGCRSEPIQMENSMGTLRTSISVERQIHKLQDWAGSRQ
Assay: cell-based human bradykinin B2 receptor calcium mobilization (hB2R-CaM) assay
Settings: antagonistic activity; HTS041C cells; bradykinin at EC80; 25 min preincubation at 37° C.; read-out: IC50-value towards human bradykinin B2 receptor (hB2R)
pIC50: −log10 of the molar value.
Measured Property: pIC50

Quick one: pIC50 for Cc1cc(-c2ncnn2C)c2cccc(OCc3c(Cl)cc(F)cc3[C@@H]3COCCN3C(=O)[C@H](C)O)c2n1 ?
≥ 7.60

Now consider Cc1cc(-n2cc(F)cn2)c2cccc(OCc3c(Cl)cc(F)cc3[C@@H]3COCCN3C(=O)c3cnco3)c2n1 .
6.30 to 7.59

Now consider Cc1cc(-n2cc(F)cn2)c2cccc(OCc3c(Cl)cc(F)cc3[C@@H]3COCCN3)c2n1 .
5.30 to 6.30

More entries:
Quick one: pIC50 for Cc1cc(-c2ncnn2C)c2cccc(OCc3c(Cl)cc(F)cc3[C@@H]3COCC(=O)N3)c2n1 ?
6.30 to 7.59
